Test Details: chemical genetic growth profiling, strain panel (AID 1159580);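 further: tested at 20 µM; growth read once vehicle control cultures reached saturation at 30 °C; lower values mean less growth of the strain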
Recorded Conditions: S. cerevisiae deletion strains, growth OD, locus YMR125W, strain sto1
Out of some 5,500 compounds screened, about 2,000 (36%) were called active. Another 18% or so got no clear call; they are omitted. No stated cut-off is given here; in the data, active means normalized growth mostly below about 0.91 (no sharp cut-off); inconclusive means no clear call, values can overlap the other calls; inactive means mostly above about 0.92. This is one part of the list.
Result category, one only: active, inactive

(Q) Answer briefly: the call reported for `COc1ccc([C@@H]2CC(=O)c3c(O)cc(O)cc3O2)cc1O` in this assay.
(A) inactive

(Q) Status in this test for `CC(C)=CCc1c(O)cc2oc(C)cc(=O)c2c1O` ?
(A) inactive

(Q) What did the test return for `C[C@@H]1O[C@@H](O[C@H]2[C@@H](Oc3cc(O)c4c(c3)O[C@H](c3ccc(O)cc3)CC4=O)O[C@H](CO)[C@@H](O)[C@@H]2O)[C@H](O)[C@H](O)[C@H]1O` ?
(A) inactive

(Q) Name the outcome recorded for `c1ccc(CN(CC2=NCCN2)c2ccccc2)cc1` in the assay.
(A) inactive

(Q) Test call, this compound: `Cc1cccc(Nc2cc(Cl)nc(SCC(=O)O)n2)c1C`
(A) inactive

(Q) Record lookup: outcome of this test for CC1(C)S[C@@H]2[C@H](NC(=O)[C@H](NC(=O)N3CCNC3=O)c3ccccc3)C(=O)N2C1C(=O)O (stereo not given in full) ?
(A) inactive

(Q) Status in this test for CC1(C)C2CC[C@]3(C)C(C(=O)C=C4[C@@H]5C[C@@](C)(C(=O)O)CC[C@]5(C)CC[C@]43C)[C@@]2(C)CC[C@@H]1O (stereo not given in full) ?
(A) active

(Q) Assay outcome for `COc1c(O)cc2oc3cc(O)c(CC=C(C)C)c(O)c3c(=O)c2c1CC=C(C)C` : what was it?
(A) inactive

(Q) Could you check what this test reported for `C/C=C(/C(=C/C)c1ccc(O)cc1)c1ccc(O)cc1` ?
(A) inactive

(Q) Check the results log: what was the call for `NC(=O)N1c2ccccc2CC(=O)c2ccccc21` ?
(A) inactive

(Q) What did the test return for NC[C@@H]1O[C@H](O[C@@H]2[C@@H](CO)OC(O[C@@H]3[C@@H](O)[C@H](N)C[C@H](N)[C@H]3OC3O[C@H](CN)[C@@H](O)[C@H](O)[C@H]3N)[C@@H]2O)[C@H](N)[C@@H](O)[C@@H]1O (stereo not given in full) ?
(A) inactive

(Q) Give the logged outcome of this assay for the following compound: `Cn1cc[nH]c1=S`
(A) inactive

(Q) What outcome does the record of this test show for `NC(N)=Nc1nc(CSCCC(N)=NS(N)(=O)=O)cs1` ?
(A) inactive

(Q) Hi, sorry to bother you, what did the test record for `OCCN(CCO)c1nc(N2CCCCC2)c2nc(N(CCO)CCO)nc(N3CCCCC3)c2n1` ?
(A) inactive

(Q) Could you please tell me the result logged for CNC1(C)C2CCC(C2)C1(C)C (stereo not given) in this assay?
(A) inactive

(Q) Which outcome was assigned to `O=C(Cc1ccccc1)NO` in this test?
(A) inactive

(Q) For this compound, state the assay outcome: COc1cc2c(cc1OC)C(=O)C(CC1CCN(Cc3ccccc3)CC1)C2 (stereo not given)
(A) inactive

The reported measurements were obtained from PubChem BioAssay AID1159580.
